Let's go through some pIC50 measurements on IRE1α (Homo sapiens (Human), UniProt O75460) together.
Sequence (O75460 19-977): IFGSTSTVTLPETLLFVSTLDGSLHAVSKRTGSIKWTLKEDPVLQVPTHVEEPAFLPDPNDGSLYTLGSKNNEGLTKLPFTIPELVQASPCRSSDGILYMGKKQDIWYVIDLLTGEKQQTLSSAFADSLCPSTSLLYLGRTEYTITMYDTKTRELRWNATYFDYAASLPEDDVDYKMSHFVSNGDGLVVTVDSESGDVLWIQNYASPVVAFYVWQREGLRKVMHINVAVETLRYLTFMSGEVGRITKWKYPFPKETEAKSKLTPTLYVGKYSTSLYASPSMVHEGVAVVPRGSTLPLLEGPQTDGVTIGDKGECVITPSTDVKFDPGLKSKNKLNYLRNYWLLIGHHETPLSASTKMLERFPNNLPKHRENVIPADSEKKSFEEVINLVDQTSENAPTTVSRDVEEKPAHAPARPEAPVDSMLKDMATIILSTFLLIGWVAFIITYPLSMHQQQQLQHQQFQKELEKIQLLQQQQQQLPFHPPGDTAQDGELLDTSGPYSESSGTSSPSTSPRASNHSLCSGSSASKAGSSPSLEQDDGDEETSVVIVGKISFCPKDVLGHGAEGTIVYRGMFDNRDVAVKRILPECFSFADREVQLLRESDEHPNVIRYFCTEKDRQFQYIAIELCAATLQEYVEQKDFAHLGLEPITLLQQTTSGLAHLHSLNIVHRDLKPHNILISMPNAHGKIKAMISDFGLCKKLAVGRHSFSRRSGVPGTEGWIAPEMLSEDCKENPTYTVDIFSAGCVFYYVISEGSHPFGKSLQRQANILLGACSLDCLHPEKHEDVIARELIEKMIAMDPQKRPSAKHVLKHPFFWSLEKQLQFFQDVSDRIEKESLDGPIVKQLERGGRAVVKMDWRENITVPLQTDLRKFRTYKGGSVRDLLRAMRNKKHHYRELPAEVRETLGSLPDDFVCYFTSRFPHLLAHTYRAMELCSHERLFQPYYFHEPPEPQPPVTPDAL
pIC50: −log10 of the molar value.

Please review the following examples before continuing.
| compound | tested-system | obs-value |
| --- | --- | --- |
| COc1cc(NS(=O)(=O)c2ccccc2Cl)ccc1/C=C/c1cnc(NC2CCC(N)CC2)nc1 (stereo not drawn) | IRE1α (Homo sapiens (Human), UniProt O75460) | ≥ 9.00 |
| Cc1cc(NS(=O)(=O)c2ccccc2Cl)ccc1CCc1cnc(NC2CCC(N)CC2)nc1 (stereo not drawn) | IRE1α (Homo sapiens (Human), UniProt O75460) | ≥ 9.00 |
| CCc1nc(NS(=O)(=O)c2ccccc2Cl)ccc1C=Cc1cnc(NC2CCC(N)CC2)nc1 (stereo not drawn) | IRE1α (Homo sapiens (Human), UniProt O75460) | ≥ 9.00 |
| COc1nc(NS(=O)(=O)c2ccccc2Cl)ccc1/C=C/c1cnc(NC2CCC(O)CC2)nc1 (stereo not drawn) | IRE1α (Homo sapiens (Human), UniProt O75460) | 8.30 to 9.00 |
| COc1nc(NS(=O)(=O)c2ccccc2Cl)ccc1CCc1cnc(NC2CCC(N(C)C)CC2)nc1 (stereo not drawn) | IRE1α (Homo sapiens (Human), UniProt O75460) | ≥ 9.00 |
| Cc1nc(NS(=O)(=O)c2ccc(F)c(F)c2Cl)ccc1/C=C/c1cnc(NC2CCC(N(C)C)CC2)nc1 (stereo not drawn) | IRE1α (Homo sapiens (Human), UniProt O75460) | ≥ 9.00 |
| Cc1cc(NS(=O)(=O)c2ccccc2Cl)ccc1/C=C/c1cnc(NC2CCC(N)CC2)nc1 (stereo not drawn) | IRE1α (Homo sapiens (Human), UniProt O75460) | ≥ 9.00 |
| COc1nc(NS(=O)(=O)c2ccc(F)cc2Cl)ccc1/C=C/c1cnc(NC2CCC(N(C)C)CC2)nc1 (stereo not drawn) | IRE1α (Homo sapiens (Human), UniProt O75460) | ≥ 9.00 |

Give reported pIC50 value for CN(C)C1CCC(Nc2ncc(/C=C/c3ccc(NS(=O)(=O)c4ccccc4Cl)nc3)cn2)CC1 (stereo not drawn)
≥ 9.00

Give reported pIC50 value for Cc1nc(NS(=O)(=O)c2ccccc2Cl)ccc1/C=C/c1cnc(NC2CCC(N)CC2)nc1 (stereo not drawn)
≥ 9.00

Give reported pIC50 value for CN(C)C1CCC(Nc2ncc(/C=C/c3ccc(NS(=O)(=O)c4ccccc4Cl)c(F)c3)cn2)CC1 (stereo not drawn)
≥ 9.00

Give reported pIC50 value for COc1nc(NS(=O)(=O)c2ccccc2Cl)ccc1CCc1cnc(NC2CCC(N)CC2)nc1 (stereo not drawn)
≥ 9.00

Give reported pIC50 value for Cc1nc(NS(=O)(=O)c2ccccc2Cl)ccc1/C=C/c1cnc(NC23CCC(N)(CC2)CC3)nc1
≥ 9.00

Give reported pIC50 value for Cc1nc(NS(=O)(=O)c2ccccc2Cl)ccc1CCc1cnc(NC2CCC(N(C)C)CC2)nc1 (stereo not drawn)
8.30 to 9.00

Give reported pIC50 value for Cc1cc(NS(=O)(=O)c2ccccc2Cl)c(F)cc1/C=C/c1cnc(NC2CCC(N(C)C)CC2)nc1 (stereo not drawn)
≥ 9.00

Give reported pIC50 value for COc1nc(NS(=O)(=O)c2ccccc2Cl)c(F)cc1/C=C/c1cnc(NC2CCC(N(C)C)CC2)nc1 (stereo not drawn)
≥ 9.00

Give reported pIC50 value for COc1nc(NS(=O)(=O)c2cnccc2Cl)ncc1C=Cc1cnc(NC2CCC(N(C)C)CC2)nc1 (stereo not drawn)
8.30 to 9.00

Give reported pIC50 value for COc1nc(NS(=O)(=O)c2cccc(F)c2Cl)ccc1/C=C/c1cnc(NC2CCC(N(C)C)CC2)nc1 (single isomer, unassigned)
≥ 9.00
